Would you mind telling me the reported FACS fluorescence of each entry?
experimental_system: T1, human CLDN6 fused to GFP, expressed on engineered HEK293T cells (HEK293T-CLDN6-mGFP) (human, UniProt P56747 1-220)
T1 construct: It calls residues 1-21 a signal peptide; also called Claudin-6; HEK293T-CLDN6-mGFP Artificial CLDN6+; not shown: mGFP tag
T1 sequence: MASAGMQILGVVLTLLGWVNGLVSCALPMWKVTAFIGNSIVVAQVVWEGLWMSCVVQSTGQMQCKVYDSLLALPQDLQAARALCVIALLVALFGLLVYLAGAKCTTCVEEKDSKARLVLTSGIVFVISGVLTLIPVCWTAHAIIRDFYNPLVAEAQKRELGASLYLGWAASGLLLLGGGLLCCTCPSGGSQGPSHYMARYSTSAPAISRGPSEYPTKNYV
protocol: FACS, 1.5 µg Ab, 293T clone with human CLDN6
Answer with a bare number; do not write a unit.

Using known records, supply FACS fluorescence for AB9-chim (antibody, V domains shown, 'chim' is the pre-humanized form (parental variable regions); also called pre-humanized (chimeric) form of AB9) VH: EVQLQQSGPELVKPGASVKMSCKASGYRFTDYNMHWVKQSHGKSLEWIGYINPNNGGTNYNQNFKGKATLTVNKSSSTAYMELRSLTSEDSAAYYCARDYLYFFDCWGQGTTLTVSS VL: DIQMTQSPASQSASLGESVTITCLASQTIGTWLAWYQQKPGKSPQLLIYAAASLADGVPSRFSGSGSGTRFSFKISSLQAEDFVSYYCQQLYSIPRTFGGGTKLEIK
72000

Using known records, supply FACS fluorescence for AB18-6 (antibody, V domains shown, also called Humanized AB 18-6) VH: QVQLVQSGAEVKKPGASVKISCKASGYSFTGYNMNWVRQAPGQGLEWIGNIDPYYGGSTYAQKFQGRATLTVDTSTSTAYMELSSLRSEDTAVYYCARERSGYVFSAMDYWGQGTLVTVSS VL: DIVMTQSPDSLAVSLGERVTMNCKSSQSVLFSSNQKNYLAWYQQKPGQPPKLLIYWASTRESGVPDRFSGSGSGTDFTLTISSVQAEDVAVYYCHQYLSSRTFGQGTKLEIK
58500
